experiment: folding enthalpy; higher = less favourable; fluorescence melt of hairpins on a sequencing array, two-state fit; settings: sodium 0.088 M
Threshold rule: folding enthalpy greater than or equal to -30 kcal/mol is true; below that, false.

GCTACCGAAAGGTCAAGC ((((((....)))..))): true
GATCTCTTTTGAGATC ((((((....)))))): false
GACTCACGAAAGTGTGTC (((.(((....))).))): false

Problem: Does the sequence GCTAGGCGAAAGCTTCGC ((.(.((....)).).)) have recorded folding enthalpy that is -30 kcal/mol or more?
Result: true

Problem: Does the sequence GATCATGCATATGATC ((((((....)))))) have recorded folding enthalpy that is -30 kcal/mol or more?
Result: false

Problem: Does the sequence GCGTGTTCACGC ((((....)))) have recorded folding enthalpy that is -30 kcal/mol or more?
Result: true
